Data provenance is ChEMBL document CHEMBL1201862.

- Tested on: NCI-H460
- procedure_details: NCI tumour cell line growth inhibition, 48 h
Activity calls are given as the source filed them. No stated cut-off is given here; in the data, active = GI50 up to about 1.1 µM and inactive = higher.
value_kind: GI50

Previously resolved entries follow.
C#CCn1c(=O)c(Cl)cn(/C(=C/C(=O)OCC)C(=O)OCC)c1=O :: 32.4 µM (inactive)
CCN(CC)N1C(=O)[N-][N+](CC)(CC)C1=O :: > 100 µM (inactive)
NC(=S)N/N=C1\C(=O)Nc2c(Cl)cc(Cl)cc21 :: 17.1 µM (inactive)
O=C(CC1(O)C(=O)Nc2ccccc21)c1cccc(O)c1 (stereo unspecified) :: > 100 µM (inactive)
O=C1N[C@H]2c3c(Cl)sc(Cl)c3[C@@H](O)[C@H]2O1 :: > 100 µM (inactive)

With those in mind, consider the next compound.
What measured GI50 goes with CC1(C)CC2=NOS3=C2C(=NO3)C1c1ccccn1 (stereo unspecified) ? 33.7 µM (inactive)
